These measurements were taken from patent US10940139B2.

Assignment: determine reported inhibition at 20 µM for the given molecules.
Target: KRas G12D/Q61H double mutant (Homo sapiens (Human), UniProt P01116, G12D/Q61H)
Sequence (P01116-2 other isoform, or with tags, fused parts or gaps G12D/Q61H): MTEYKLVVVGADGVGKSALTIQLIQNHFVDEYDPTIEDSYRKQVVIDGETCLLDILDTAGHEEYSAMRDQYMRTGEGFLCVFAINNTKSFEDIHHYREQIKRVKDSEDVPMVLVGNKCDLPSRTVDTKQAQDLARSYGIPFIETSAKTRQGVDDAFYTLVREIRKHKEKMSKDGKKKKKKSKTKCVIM
Assay: Ras GTP binding domain inhibition assay (labeled GTP)
Settings: 20 μM compound; read-out: % Inhibition at 20 μM KRas G12D Q61H
Experimental: Buffer-I: • 50 mM Tris, pH 7.5 • 150 mM NaCl (optional) • 1 mM MgCl2 • 1 mM DTT. • KRas G12D mutant protein was expressed as a His-tagged protein. […] Then 22 μl of Cy3-GTP or Cy5-GTP was added to each well. The labeled GTP was incubated for 45 min. at room temperature. • Following GTP incubation, wells were washed 3× in Buffer-I, and 200 μl of Buffer-I were added to each well. • Following washes, the amount of bound labeled-GTP was measured with an Eppendorf AF2200 plate reader. […]

Incoming: Quick one: inhibition at 20 µM of `O=C(c1csc2c(O)nc(-c3ccccn3)nc12)N1CCN(c2ccc(O)cc2)CC1` ?
Outgoing: 25 to 50%

Incoming: Quick one: inhibition at 20 µM of O=C(Nc1nnc(-c2ccccn2)[nH]1)C1CCCN(C(=O)c2ccoc2)C1 (centres unmarked) ?
Outgoing: 25 to 50%

Incoming: Quick one: inhibition at 20 µM of CC(=O)Nc1cccc(C(C)N(Cc2ccccc2)Cc2nc(-c3ccc(Cl)cc3)no2)c1 (centres unmarked) ?
Outgoing: 1 to 25%

Incoming: Quick one: inhibition at 20 µM of `CCN(CC)S(=O)(=O)c1ccc(NCCOC)c(C(=O)NCCC(C)C)c1` ?
Outgoing: 1 to 25%

Incoming: Quick one: inhibition at 20 µM of CC(C)N1CC(C(=O)Nc2nnc(-c3ccccn3)[nH]2)CC1=O (centres unmarked) ?
Outgoing: 25 to 50%

Incoming: Quick one: inhibition at 20 µM of `FC(F)(F)c1ccc(N2CCCC2)c(NCc2nc(-c3ccco3)no2)c1` ?
Outgoing: 25 to 50%

Incoming: Quick one: inhibition at 20 µM of COCCCCNC(=O)c1csc2nc(-c3ccccn3)nc(N3CCS(=O)(=O)CC3)c12 [drawing 2826] ?
Outgoing: 1 to 25%

Incoming: Quick one: inhibition at 20 µM of Nc1nc(-c2ccccn2)nc2scc(Br)c12 [drawing 2894] ?
Outgoing: 25 to 50%

Incoming: Quick one: inhibition at 20 µM of `COc1ccccc1OCc1ccc(C(=O)N2CCc3ccccc32)o1` ?
Outgoing: 25 to 50%

Incoming: Quick one: inhibition at 20 µM of `Cc1nc(CN(Cc2ccccc2)Cc2ccccc2)no1` ?
Outgoing: 25 to 50%

Incoming: Quick one: inhibition at 20 µM of CCC1COCCN1c1nc(-c2ccccn2)nc2scc(-c3ccccc3)c12 (centres unmarked) ?
Outgoing: 25 to 50%

* * *

Molecular target: KRas G12C/Q61H double mutant (Homo sapiens (Human), UniProt P01116, G12C/Q61H)
Sequence (P01116-2 other isoform, or with tags, fused parts or gaps G12C/Q61H): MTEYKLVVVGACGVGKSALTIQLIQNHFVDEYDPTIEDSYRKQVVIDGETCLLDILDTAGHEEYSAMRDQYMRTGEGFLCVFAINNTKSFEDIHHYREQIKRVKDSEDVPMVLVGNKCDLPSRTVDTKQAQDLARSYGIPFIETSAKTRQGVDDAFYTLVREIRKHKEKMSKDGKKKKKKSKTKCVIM
Assay: Ras GTP binding domain inhibition assay (labeled GTP)
Settings: 20 μM compound; read-out: % Inhibition at 20 μM KRas G12C Q61H
readout.label: inhibition at 20 µM

Incoming: Quick one: inhibition at 20 µM of Oc1nc(-c2ccccn2)nc2c(-c3ccc(OC4CCCCC4)cc3)csc12 [drawing 2887] ?
Outgoing: 25 to 50%

Incoming: Quick one: inhibition at 20 µM of Oc1nc(-c2ccccn2)nc2c(-c3ccc(OC4CCOC4)cc3)csc12 (stereo not shown) [drawing 2862] ?
Outgoing: 1 to 25%

Incoming: Quick one: inhibition at 20 µM of COc1ccccc1-c1csc2c(O)nc(-c3ccccn3)nc12 [drawing 2870] ?
Outgoing: 25 to 50%

Incoming: Quick one: inhibition at 20 µM of CC(C)(C)c1ccc(-c2csc3c(O)nc(-c4ccccn4)nc23)cc1 [drawing 2847] ?
Outgoing: 51 to 75%

Incoming: Quick one: inhibition at 20 µM of COc1ccccc1C1CN(C(=O)c2csc3c(O)nc(-c4ccccn4)nc23)CCN1 (stereo not shown) [drawing 2772] ?
Outgoing: 51 to 75%

Incoming: Quick one: inhibition at 20 µM of O=C(NCCc1cncs1)c1csc2nc(-c3ccccn3)nc(N3CCOCC3)c12 [drawing 2749] ?
Outgoing: 25 to 50%

Incoming: Quick one: inhibition at 20 µM of O=C(NCCc1ccncc1)c1csc2nc(-c3ccccn3)nc(N3CCOCC3)c12 [drawing 2779] ?
Outgoing: 51 to 75%

Incoming: Quick one: inhibition at 20 µM of COC(=O)c1csc2nc(-c3ccccn3)nc(N)c12 [drawing 2895] ?
Outgoing: 25 to 50%

Incoming: Quick one: inhibition at 20 µM of O=C(c1csc2c(O)nc(-c3ccccn3)nc12)N1CCN(Cc2cccc(O)c2)CC1 [drawing 2726] ?
Outgoing: 76 to 100%

Incoming: Quick one: inhibition at 20 µM of Oc1nc(-c2ccccn2)nc2c(-c3cccc4c3OCO4)csc12 [drawing 2849] ?
Outgoing: 25 to 50%
